Overview of reported EC50 across a group of compounds:
- Target or test system: Androgen receptor (Homo sapiens, UniProt P10275)
- Sequence (P10275 whole entry, the tested form may be a part): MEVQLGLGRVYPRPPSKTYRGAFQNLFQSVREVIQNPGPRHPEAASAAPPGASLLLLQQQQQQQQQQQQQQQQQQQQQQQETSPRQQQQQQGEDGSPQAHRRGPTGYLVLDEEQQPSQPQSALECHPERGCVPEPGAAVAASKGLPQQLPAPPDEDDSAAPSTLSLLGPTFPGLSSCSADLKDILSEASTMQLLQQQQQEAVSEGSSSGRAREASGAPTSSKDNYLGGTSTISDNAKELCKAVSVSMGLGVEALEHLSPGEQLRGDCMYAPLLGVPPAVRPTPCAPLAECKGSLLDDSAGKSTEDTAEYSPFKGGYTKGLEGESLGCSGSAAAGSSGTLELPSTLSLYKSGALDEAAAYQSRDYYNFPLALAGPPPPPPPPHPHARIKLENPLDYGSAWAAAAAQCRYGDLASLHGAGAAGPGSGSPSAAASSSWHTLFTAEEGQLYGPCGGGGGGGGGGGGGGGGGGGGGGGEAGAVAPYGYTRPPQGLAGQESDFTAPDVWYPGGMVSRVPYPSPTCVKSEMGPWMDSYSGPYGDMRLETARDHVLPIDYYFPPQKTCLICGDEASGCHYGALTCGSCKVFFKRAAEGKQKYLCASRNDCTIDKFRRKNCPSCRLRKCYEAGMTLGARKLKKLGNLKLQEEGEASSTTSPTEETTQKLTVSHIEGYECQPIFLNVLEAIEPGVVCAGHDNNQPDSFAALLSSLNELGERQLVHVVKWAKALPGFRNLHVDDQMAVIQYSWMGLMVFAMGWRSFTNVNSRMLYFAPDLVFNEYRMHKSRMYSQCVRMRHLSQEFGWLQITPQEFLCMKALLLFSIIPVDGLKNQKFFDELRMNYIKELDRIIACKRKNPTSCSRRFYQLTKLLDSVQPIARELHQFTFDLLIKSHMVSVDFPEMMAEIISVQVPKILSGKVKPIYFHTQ
- Assay procedure: Agonist activity at androgen receptor-LBD expressed in HEK293 cells assessed as Gal4-DBD interaction by cellular mammalian one hybrid assay

Structure string	EC50
CN(Cc1ccc(C(=O)O)cc1)c1ccc(OCc2c(-c3c(Cl)cccc3Cl)noc2C2CC2)nc1C(F)(F)F	> 10 µM
CN(Cc1cccc(C(=O)O)c1)c1ccc(OCc2c(-c3c(Cl)cccc3Cl)noc2C2CC2)nc1C(F)(F)F	> 10 µM
CC(C)c1onc(-c2c(Cl)cccc2Cl)c1COc1ccc(N(C)Cc2ccc(C(=O)O)cc2)c(C(F)(F)F)n1	> 10 µM
